Ref: PubChem BioAssay (NCI)

# Tested on: OVCAR-3 ovarian
# experimentDescription: NCI tumour cell line growth inhibition, 48 h
measurementLabel: GI50

Recorded results for 3 compounds are shown here.
O=S(=O)(NCCNc1cc(-c2cn(-c3ccccc3)nc2-c2cccc(O)c2)ccn1)c1ccc(F)cc1 | 1980 nM
CC(=O)[CH-]C(C)=O.CC(=O)[CH-]C(C)=O.CC(=O)[CH-]C(C)=O.[Cl-].[Hf+4] | > 100000 nM
O=C(/C=C/c1ccc2c(c1)OCO2)c1ccccc1 | 4710 nM

Please report GI50 for every entry that follows.
1. O=C(Nc1cccc(-c2nc3ccccc3[nH]2)c1)c1cccc(NC(=O)c2ccco2)c1
2. CCC(=O)Nc1ccc2c(c1)CN1C(=O)c3ccccc3C1=N2

1: 1970 nM; 2: > 100000 nM

Provide GI50 value for the following compound: CN1CCN(Cc2ccc(NC(=O)c3[nH]ncc3Nc3ccnc4ccsc34)cc2)CC1
2340 nM
